measurement.notes: HepG2 cytotoxicity assay
Type: cell-based
measurement.parameters: human, HepG2 cells
CC50 at 24 h listing for selected molecules.
attribute.measured: CC50 at 24 h

{"columns": ["molecule", "attribute.measured", "assay.value"],
 "data": [
  ["Clc1ccc2c(Nc3ccc(C4CN(Cc5ccccc5)CCO4)cc3)ccnc2c1 (stereo not shown)", "CC50 at 24 h", "38 µM"],
  ["FC(F)(F)Oc1ccc(-c2cnc3cc(Cl)ccc3c2Nc2ccc(C3CN(Cc4ccccc4)CCO3)cc2)cc1 (stereo not shown)", "CC50 at 24 h", "> 200 µM"],
  ["Clc1ccc2c(Nc3ccc(N4CCOCC4)cc3)ccnc2c1", "CC50 at 24 h", "> 200 µM"],
  ["Clc1ccc2c(Nc3ccc(N4CCN(Cc5ccccc5)CC4)cc3)ccnc2c1", "CC50 at 24 h", "> 200 µM"]
]}
